Would you mind telling me the reported pKi of each entry?
- target-system: PIK3CG (human) (UniProt P48736)
- Sequence (P48736 whole entry, looked up): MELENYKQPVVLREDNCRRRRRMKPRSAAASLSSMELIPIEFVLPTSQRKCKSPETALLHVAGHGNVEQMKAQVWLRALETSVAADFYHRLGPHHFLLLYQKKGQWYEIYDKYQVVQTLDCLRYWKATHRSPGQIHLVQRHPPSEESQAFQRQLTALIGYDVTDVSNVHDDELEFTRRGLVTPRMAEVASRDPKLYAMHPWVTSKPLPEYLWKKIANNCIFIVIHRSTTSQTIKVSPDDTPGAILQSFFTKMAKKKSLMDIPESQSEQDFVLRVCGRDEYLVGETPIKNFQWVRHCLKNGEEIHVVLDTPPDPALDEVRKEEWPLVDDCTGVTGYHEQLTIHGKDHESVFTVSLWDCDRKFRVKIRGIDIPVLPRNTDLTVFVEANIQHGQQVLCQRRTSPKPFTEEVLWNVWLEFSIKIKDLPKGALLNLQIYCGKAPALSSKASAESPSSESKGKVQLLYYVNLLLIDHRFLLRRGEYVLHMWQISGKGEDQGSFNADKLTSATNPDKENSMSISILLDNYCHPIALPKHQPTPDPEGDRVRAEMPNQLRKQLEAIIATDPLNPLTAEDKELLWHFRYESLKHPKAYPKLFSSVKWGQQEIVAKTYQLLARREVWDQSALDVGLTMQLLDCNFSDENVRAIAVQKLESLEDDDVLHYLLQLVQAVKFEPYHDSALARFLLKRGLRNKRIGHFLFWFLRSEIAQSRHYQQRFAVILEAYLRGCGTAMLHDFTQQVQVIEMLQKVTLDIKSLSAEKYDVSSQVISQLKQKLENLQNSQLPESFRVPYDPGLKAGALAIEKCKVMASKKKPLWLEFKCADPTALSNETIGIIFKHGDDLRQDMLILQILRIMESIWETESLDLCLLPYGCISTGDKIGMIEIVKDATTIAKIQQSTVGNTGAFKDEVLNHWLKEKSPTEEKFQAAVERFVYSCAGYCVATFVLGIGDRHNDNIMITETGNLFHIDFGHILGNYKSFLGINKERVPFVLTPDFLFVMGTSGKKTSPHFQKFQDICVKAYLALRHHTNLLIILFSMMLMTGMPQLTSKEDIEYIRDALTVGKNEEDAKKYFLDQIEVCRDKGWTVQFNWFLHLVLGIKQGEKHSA
pKi: −log10 of the molar value.

Record excerpt, results attached:
molecule: COC(=O)c1ccn2cc(CCNC(=O)Nc3nc(C)c(C#Cc4ccncc4)s3)nc2c1
pKi: 6.60 to 7.30
--
molecule: COc1ccc(C#Cc2sc(NC(=O)NC[C@H](C)C(=O)NC(C)(C)C)nc2C)cn1
pKi: > 7.30
--
molecule: Cc1cc(O)nc(CCNC(=O)Nc2nc(C)c(C#Cc3ccncc3)s2)n1
pKi: 6.60 to 7.30
--
molecule: Cc1nc(NC(=O)NCCc2cn(CC(F)F)cn2)sc1C#Cc1ccccc1Cl
pKi: 6.60 to 7.30
--
molecule: Cc1nc(NC(=O)NCC(F)(F)F)sc1C#Cc1ccncc1
pKi: 6.60 to 7.30

# per-item lookup of pKi; items listed below
1. CCc1ccc(OCCNC(=O)Nc2nc(C)c(C#Cc3ccncc3)s2)cc1
2. Cc1nc(NC(=O)NC[C@H](C)OCC2CC2)sc1C#Cc1ccc2ncccc2c1
3. COc1cncc(C#Cc2sc(NC(=O)NC[C@H](C)OCC3CC3)nc2C)c1
4. Cc1cccc(NC(=O)CC(=O)Nc2nc(C)c(C#Cc3ccncc3)s2)c1
5. CCc1cnc(CCNC(=O)Nc2nc(C)c(C#Cc3ccncc3)s2)s1
6. Cc1nc(NC(=O)NCCOCC2CC2)sc1C#Cc1ccnc2ccccc12
7. Cc1nc(NC(=O)NCC[S+](C)[O-])sc1C#Cc1ccncc1 (configuration not stated)
8. Cc1nc(NC(=O)NCCOCC2CC2)sc1C#Cc1ccc2nccnc2c1

["6.60 to 7.30", "> 7.30", "> 7.30", "6.60 to 7.30", "> 7.30", "> 7.30", "> 7.30", "> 7.30"]

Dear reader, for each entry below, please note its pKi.
1. Cc1nc(NC(=O)NCCOc2cccnc2)sc1C#Cc1ccnc(Cl)c1
2. Cc1nc(NC(=O)NCCc2nccs2)sc1C#Cc1ccncc1
3. CCc1cnn(CCNC(=O)Nc2nc(C)c(C#Cc3ccncc3)s2)c1
4. CCC(O)CNC(=O)Nc1nc(C)c(C#Cc2cncc(OC)c2)s1 (configuration not stated)

6.60 to 7.30
6.60 to 7.30
> 7.30
> 7.30

Count: 5. Required value per item: pKi.
1. Cc1nc(NC(=O)COCc2ccccc2)sc1C#Cc1ccncc1
2. COc1cc(C#Cc2sc(NC(=O)NCCOc3cccnc3)nc2C)cnc1OC
3. CC(=O)Nc1nc(C)c(C#Cc2cncc(C(F)(F)F)c2)s1
4. Cc1nc(NC(=O)NCCOCC2CC2)sc1C#Cc1cncc(C(F)(F)F)c1
5. CC(=O)Nc1ccc(C#Cc2sc(NC(=O)NCCOCC3CC3)nc2C)cn1

1: 6.60 to 7.30; 2: > 7.30; 3: 6.60 to 7.30; 4: 6.60 to 7.30; 5: 6.60 to 7.30

###

- target-system: UniProt:P48736
Provide the reported Ki of each item.

Some compounds with recorded Ki:
chemical-string: Cc1nc(NC(=O)NC[C@H](C)OCC2CC2)sc1C#Cc1ccc2nccnc2c1
measurement-type: Ki
observed-result: < 50 nM
--
chemical-string: Cc1nc(NC(=O)COc2ccccc2)sc1C#Cc1ccncc1
measurement-type: Ki
observed-result: 50 to 250 nM
--
chemical-string: CC(=O)N1CC(C(=O)Nc2nc(C)c(C#Cc3ccncc3)s2)C1
measurement-type: Ki
observed-result: 50 to 250 nM
--
chemical-string: CCOC(=O)CCNC(=O)Nc1nc(C)c(C#Cc2ccncc2)s1
measurement-type: Ki
observed-result: < 50 nM
--
chemical-string: Cc1nc(NC(=O)NCCc2cn(CCF)cn2)sc1C#Cc1ccncc1
measurement-type: Ki
observed-result: < 50 nM
--
chemical-string: COc1ncc(C#Cc2sc(NC(=O)NCCOCC3CC3)nc2C)cn1
measurement-type: Ki
observed-result: < 50 nM
--
chemical-string: Cc1nc(NC(=O)NCCCOCC(F)(F)F)sc1C#Cc1ccncc1
measurement-type: Ki
observed-result: 50 to 250 nM
--
chemical-string: CCCOCCNC(=O)Nc1nc(C)c(C#Cc2ccncc2)s1
measurement-type: Ki
observed-result: < 50 nM

Hey, can you go through the list below and give me Ki for every item?
1. Cc1nc(NC(=O)NCCc2ncn(CC(F)F)c2Cl)sc1C#Cc1ccncc1
2. Cc1nc(NC(=O)CCCC(=O)NC(C)(C)C)sc1C#Cc1ccncc1
3. COc1ccc(C#Cc2sc(NC(=O)NCCOCC3CC3)nc2C)nc1OC

< 50 nM
50 to 250 nM
< 50 nM

###

- target-system: PIK3CG (human) (UniProt P48736)
Field: Ki. Provide a value for each of the compounds that follow.

Guide cases for Ki, answers given:
compound: Cc1nc(NC(=O)NCCc2cn(CC(F)(F)F)cn2)sc1C#Cc1ccccc1
measurement-type: Ki
observed-result: < 50 nM

compound: Cc1nc(NC(=O)[C@@H]2CCC(=O)N2)sc1C#Cc1ccncc1
measurement-type: Ki
observed-result: 50 to 250 nM

compound: COc1cc(C#Cc2sc(NC(=O)NC[C@H](C)OCC3CC3)nc2C)cnc1OC
measurement-type: Ki
observed-result: < 50 nM

compound: COc1ccc(CNC(=O)Nc2nc(C)c(C#Cc3ccncc3)s2)cc1
measurement-type: Ki
observed-result: < 50 nM

compound: CC(=O)Nc1nc(C)c(C#Cc2cccc(N)c2)s1
measurement-type: Ki
observed-result: 50 to 250 nM

compound: COC1CN(C(=O)Nc2nc(C)c(C#Cc3ccncc3)s2)C1
measurement-type: Ki
observed-result: < 50 nM

Need Ki for each of these compounds.
1. Cc1nc(NC(=O)NCCC#N)sc1C#Cc1ccncc1
2. Cc1nc(NC(=O)NCCc2cn(C(C)C)cn2)sc1C#Cc1ccncc1
3. CC(=O)Nc1nc(C)c(C#Cc2ccccc2C)s1
4. Cc1nc(NC(=O)NCCO)sc1C#Cc1ccncc1
5. Cc1nc(NC(=O)NCCOCC2CC2)sc1C#Cc1ccc(Cl)nc1
6. Cc1nc(NC(=O)NCCC2COCCO2)sc1C#Cc1ccncc1 (centres undefined)

< 50 nM
< 50 nM
< 50 nM
< 50 nM
50 to 250 nM
< 50 nM

For the 8 compounds below, give their Ki values.
1. Cc1nc(NC(=O)NCCC2CCCCO2)sc1C#Cc1ccncc1 (centres undefined)
2. Cc1nc(NC(=O)NCCOCC2CC2)sc1C#Cc1cnc(Cl)c(F)c1
3. CC(=O)Nc1nc(C)c(C#Cc2ccsc2)s1
4. CCCCOCCCNC(=O)Nc1nc(C)c(C#Cc2ccncc2)s1
5. CCc1cnc(CCNC(=O)Nc2nc(C)c(C#Cc3cncc(OC)c3)s2)s1
6. COc1ccc(C#Cc2sc(NC(=O)NCCOCC3CC3)nc2C)cn1
7. Cc1nc(NC(=O)NCCOc2cccc(F)c2)sc1C#Cc1ccncc1
8. Cc1nc(NC(=O)NCCC(=O)NC(C)C)sc1C#Cc1ccncc1

< 50 nM
50 to 250 nM
50 to 250 nM
< 50 nM
< 50 nM
50 to 250 nM
< 50 nM
< 50 nM

Here are 3 compounds. What values of Ki were reported for them?
1. Cc1nc(NC(=O)NCCC(=O)NCC(F)(F)F)sc1C#Cc1ccccc1
2. CCOC(=O)CCCNC(=O)Nc1nc(C)c(C#Cc2ccncc2)s1
3. CCCOCCOC(=O)Nc1nc(C)c(C#Cc2ccncc2)s1

50 to 250 nM
< 50 nM
< 50 nM

Give me measured Ki, please, for this compound: COc1cncc(C#Cc2sc(NC(=O)NC[C@H](C)O)nc2C)c1
< 50 nM
